src = patent US10766928B2

- Test system: endosomes of Jurkat lymphocytes
- protocol_summary: Endosome disruption in Jurkat lymphocytes: release of carboxyfluorescein from disulfide probe Compound 2, flow cytometry
- conditions: read-out: Potency; Table 2; EC50 ± standard deviation; Jurkat lymphocytes, disulfide-linked fluorescent probe (2.5 μM), 14 h
Non-standard residues stand in square brackets, D forms with d. Residues, ends and D or L forms follow the SMILES beside them. Aib = CC(C)(N)C(=O)O
property_measured: pEC50
// field semantics: pEC50 = negative decimal log of concentration (mol/L)

stdin: // returns reported pEC50 for input CC(C)[C@H](NC(=O)[C@@H](NC(=O)[C@@H]1CCCN1C(=O)[C@@H]1CCCN1C(=O)[C@H](Cc1ccc(O)cc1)NC(=O)[C@H](Cc1c[nH]c2ccccc12)NC(=O)[C@H](C)NC(=O)[C@H](Cc1c[nH]c2ccccc12)NC(=O)[C@H](Cc1c[nH]c2ccccc12)NC(=O)C(C)(C)NC(=O)C(C)(C)NC(=O)C(C)(C)NC(=O)C(C)(C)N)C(C)C)C(N)=O [Compound 54] (H-[Aib][Aib][Aib][Aib]WWAWYPPVV-NH2)
stdout: 5.27

----------
- protocol_summary: Thermodynamic solubility in PBS (pH 7.4)
- Format: physicochemical
- conditions: phosphate buffered saline, pH 7.4, Table 3; PBS pH 7.4, 24 h at 22° C.; read-out: Solubility
Non-standard residues stand in square brackets, D forms with d. Residues, ends and D or L forms follow the SMILES beside them. Aib = CC(C)(N)C(=O)O
For each record, write down the corresponding solubility thermodynamic at 24 h.
I'd appreciate it if you included the unit after the number.

stdin: Name the recorded solubility thermodynamic at 24 h for CC(C)[C@H](NC(=O)[C@@H](NC(=O)[C@@H]1CCCN1C(=O)[C@@H]1CCCN1C(=O)[C@H](C)NC(=O)[C@H](Cc1ccc(O)cc1)NC(=O)[C@H](C)NC(=O)[C@H](Cc1c[nH]c2ccccc12)NC(=O)[C@H](Cc1c[nH]c2ccccc12)NC(=O)C(C)(C)NC(=O)C(C)(C)NC(=O)C(C)(C)NC(=O)C(C)(C)N)C(C)C)C(N)=O [Compound 48] (H-[Aib][Aib][Aib][Aib]WWAYAPPVV-NH2) .
stdout: 86 µM

stdin: Endpoint output: solubility thermodynamic at 24 h of CC(=O)NC(C)(C)C(=O)NC(C)(C)C(=O)NC(C)(C)C(=O)NC(C)(C)C(=O)N[C@@H](Cc1c[nH]c2ccccc12)C(=O)N[C@@H](Cc1ccc(O)cc1)C(=O)N[C@@H](C)C(=O)N[C@@H](Cc1c[nH]c2ccccc12)C(=O)N[C@@H](Cc1ccc(O)cc1)C(=O)N[C@@H](C)C(=O)N[C@@H](Cc1c[nH]c2ccccc12)C(=O)N[C@@H](Cc1ccc(O)cc1)C(=O)N1CCC[C@H]1C(=O)N1CCC[C@H]1C(=O)N[C@H](C(=O)N[C@H](C(N)=O)C(C)C)C(C)C [Compound 82] (Ac-[Aib][Aib][Aib][Aib]WYAWYAWYPPVV-NH2) . Value?
stdout: 2 µM

----------
Would you kindly list solubility thermodynamic at 24 h for each of these substances?
- protocol_summary: Thermodynamic solubility in PBS (pH 7.4)
- Format: physicochemical
- conditions: phosphate buffered saline, pH 7.4, Table 3; PBS pH 7.4, 24 h at 22° C.; read-out: Solubility

stdin: Suppose we examine the substance Ac-AAAWWAYWPPVA-NH2 [Compound 40] ; what solubility thermodynamic at 24 h value has been reported?
stdout: 41 µM

stdin: Item under review: Ac-SSAWWSYWPPVA-NH2 [Compound 39, reference compound] . Reported solubility thermodynamic at 24 h?
stdout: 137 µM

----------
- Test system: endosomes of Jurkat lymphocytes
- protocol_summary: Endosome disruption in Jurkat lymphocytes: release of carboxyfluorescein from disulfide probe Compound 2, flow cytometry
- conditions: Table 2; % of the effect of compound 1, calculated span of dose-response curve, ± standard deviation; Jurkat, 14 h
Non-standard residues stand in square brackets, D forms with d. Residues, ends and D or L forms follow the SMILES beside them. Aib = CC(C)(N)C(=O)O
property_measured: Efficacy (% of 1)

stdin: What value of measured Efficacy (% of 1) is listed for CC(C)[C@H](NC(=O)[C@@H](NC(=O)[C@@H]1CCCN1C(=O)[C@@H]1CCCN1C(=O)[C@H](Cc1c[nH]c2ccccc12)NC(=O)[C@H](Cc1c[nH]c2ccccc12)NC(=O)[C@H](C)NC(=O)[C@H](Cc1ccc(O)cc1)NC(=O)[C@H](Cc1c[nH]c2ccccc12)NC(=O)C(C)(C)NC(=O)C(C)(C)NC(=O)C(C)(C)NC(=O)C(C)(C)N)C(C)C)C(N)=O [Compound 53] (H-[Aib][Aib][Aib][Aib]WYAWWPPVV-NH2) ?
stdout: 96 ± 12%

----------
- Test system: endosomes of Jurkat lymphocytes
- protocol_summary: Endosome disruption in Jurkat lymphocytes: release of carboxyfluorescein from disulfide probe Compound 2, flow cytometry
- conditions: read-out: Potency; Table 2; EC50 ± standard deviation; Jurkat lymphocytes, disulfide-linked fluorescent probe (2.5 μM), 14 h
Non-standard residues stand in square brackets, D forms with d. Residues, ends and D or L forms follow the SMILES beside them. Aib = CC(C)(N)C(=O)O
property_measured: EC50 (µM)
Please give a number only; it is taken to be in µM.

stdin: Looking for the measured EC50 of CC(C)[C@H](NC(=O)[C@@H](NC(=O)[C@@H]1CCCN1C(=O)[C@@H]1CCCN1C(=O)[C@H](Cc1ccc(O)cc1)NC(=O)[C@H](Cc1ccc(O)cc1)NC(=O)[C@H](C)NC(=O)[C@H](Cc1ccc(O)cc1)NC(=O)[C@H](Cc1ccc(O)cc1)NC(=O)[C@H](C)NC(=O)[C@H](Cc1ccc(O)cc1)NC(=O)[C@H](Cc1ccc(O)cc1)NC(=O)C(C)(C)NC(=O)C(C)(C)NC(=O)C(C)(C)NC(=O)C(C)(C)N)C(C)C)C(N)=O [Compound 85] (H-[Aib][Aib][Aib][Aib]YYAYYAYYPPVV-NH2) , can you help?
stdout: 4

----------
- protocol_summary: Thermodynamic solubility in PBS (pH 7.4)
- Type: physicochemical
- conditions: phosphate buffered saline, pH 7.4, Table 3; PBS pH 7.4, 24 h at 22° C.; read-out: Solubility
Non-standard residues stand in square brackets, D forms with d. Residues, ends and D or L forms follow the SMILES beside them. Aib = CC(C)(N)C(=O)O
I'd appreciate it if you could supply solubility thermodynamic at 24 h values for the items below.
Form entry: enter the amount, then its unit.

stdin: # input compound: CC(C)[C@H](NC(=O)[C@@H](NC(=O)[C@@H]1CCCN1C(=O)[C@@H]1CCCN1C(=O)[C@H](Cc1c[nH]c2ccccc12)NC(=O)[C@H](Cc1ccc(O)cc1)NC(=O)[C@H](C)NC(=O)[C@H](C)NC(=O)[C@H](Cc1c[nH]c2ccccc12)NC(=O)C(C)(C)NC(=O)C(C)(C)NC(=O)C(C)(C)NC(=O)C(C)(C)N)C(C)C)C(N)=O [Compound 46] (H-[Aib][Aib][Aib][Aib]WAAYWPPVV-NH2) ; wanted: its solubility thermodynamic at 24 h
stdout: 86 µM

stdin: Return reported solubility thermodynamic at 24 h; argument: CC(C)[C@H](NC(=O)[C@@H](NC(=O)[C@@H]1CCCN1C(=O)[C@H](C)NC(=O)[C@H](Cc1c[nH]c2ccccc12)NC(=O)[C@H](Cc1ccc(O)cc1)NC(=O)[C@H](C)NC(=O)[C@H](Cc1c[nH]c2ccccc12)NC(=O)[C@H](Cc1c[nH]c2ccccc12)NC(=O)C(C)(C)NC(=O)C(C)(C)NC(=O)C(C)(C)NC(=O)C(C)(C)N)C(C)C)C(N)=O [Compound 49] (H-[Aib][Aib][Aib][Aib]WWAYWAPVV-NH2)
stdout: 21 µM

----------
- protocol_summary: Thermodynamic solubility in PBS (pH 7.4)
- Type: physicochemical
- conditions: phosphate buffered saline, pH 7.4, Table 3; PBS pH 7.4, 24 h at 22° C.; read-out: Solubility
Non-standard residues stand in square brackets, D forms with d. Residues, ends and D or L forms follow the SMILES beside them. Aib = CC(C)(N)C(=O)O
property_measured: solubility thermodynamic at 24 h (µM)
Respond numerically; units are µM and should not be typed.

stdin: Dear colleague, I am looking for the recorded solubility thermodynamic at 24 h of the following compound: CC(C)[C@H](NC(=O)[C@@H](NC(=O)[C@@H]1CCCN1C(=O)[C@@H]1CCCN1C(=O)[C@H](Cc1ccc(O)cc1)NC(=O)[C@H](Cc1c[nH]c2ccccc12)NC(=O)[C@H](Cc1ccc(O)cc1)NC(=O)[C@H](Cc1c[nH]c2ccccc12)NC(=O)[C@H](C)NC(=O)[C@H](Cc1ccc(O)cc1)NC(=O)[C@H](Cc1c[nH]c2ccccc12)NC(=O)[C@H](C)NC(=O)C(C)(C)NC(=O)C(C)(C)NC(=O)C(C)(C)NC(=O)C(C)(C)N)C(C)C)C(N)=O [Compound 81] (H-[Aib][Aib][Aib][Aib]AWYAWYWYPPVV-NH2)
stdout: 3
